Experiment: qHTS RealTime-Glo MT Cell Viability Assay in HepG2 cells - 40 hour (AID 1224870); note: nearly all actives have a fitted effect of over 50% in size
Conditions: RealTime-Glo luminescence; series mostly up to 76.8 µM
Inconclusive results are not listed. The source made the active and inactive calls. Calls come from the whole dose curve; as a rule, active = well fitted cell-killing curve with a large enough effect in the repeat runs; inconclusive = weak or mixed curves, or effect the other way; inactive = flat fitted curve, though single readings scatter.
Outcomes: active, inactive

COMPOUND	CLASS_LABEL
O=S(=O)(O)c1ccc2nc(-c3ccccc3)[nH]c2c1	inactive
C=CS(=O)(=O)O	inactive
CCCCN(CCO)CCCC	inactive
Nc1cc(S(=O)(=O)O)cc2cc(S(=O)(=O)O)cc(O)c12	inactive
CC1=CC(=O)c2ccccc2C1=O	active
O=C(OCc1ccccc1)c1ccc(O)cc1	inactive
CC(C)CCOCc1ccccc1	inactive
CC(C)(c1ccccc1)c1ccc(Nc2ccc(C(C)(C)c3ccccc3)cc2)cc1	inactive
CCC(C)(Oc1ccc(C2(c3ccc(OC(C)(CC)C(=O)O)cc3)CCCCC2)cc1)C(=O)O (stereo not drawn)	inactive
OCCN1CCNCC1	inactive
CC1=C(C=O)C(C)(C)CC=C1	inactive
Oc1c(Cl)cc(Cl)cc1Sc1cc(Cl)cc(Cl)c1O	inactive
Nc1cc(Cl)c(-c2cc(Cl)c(N)cc2Cl)cc1Cl	inactive
